B1: TPR 5TU (parent)
chain: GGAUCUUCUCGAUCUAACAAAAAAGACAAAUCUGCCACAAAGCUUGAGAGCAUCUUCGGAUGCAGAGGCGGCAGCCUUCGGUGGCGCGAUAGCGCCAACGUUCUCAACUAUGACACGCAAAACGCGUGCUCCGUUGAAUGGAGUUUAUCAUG

Variants of: B1
Assay: polymerase ribozyme fitness, log enrichment relative to wild type (log ratio); higher = more active; in vitro selection for triplet polymerase activity
Variants at the floor of the assay were thinned out.
MEASURE: polymerase ribozyme fitness (log ratio)
Output: the number by itself.

Would you please look over these solved cases?
[in] Consider the variant C85G C118U C132U and give its measured polymerase ribozyme fitness (log ratio).
[out] -3.11

[in] Please look up its polymerase ribozyme fitness (log ratio): A47C C57A C105A G126A
[out] -3.51

[in] # lookup: polymerase ribozyme fitness (log ratio) of U55G A89U C132G
[out] -3.98

[in] I'd like to know its polymerase ribozyme fitness (log ratio). The variant in question is A20C U61G
[out] -1.36

[in] What measured polymerase ribozyme fitness (log ratio) goes with A24U A37G ?
[out] -2.41

Continuing:
[in] Would you mind telling me what polymerase ribozyme fitness (log ratio) value was observed for C5U U56A C57A C85G ?
[out] -0.724

[in] GET /values?readout=polymerase ribozyme fitness (log ratio)&item= A23C U144C
[out] -4.15

[in] Looking for the measured polymerase ribozyme fitness (log ratio) of G11A G94U A150U , can you help?
[out] -0.735

[in] Quick one: polymerase ribozyme fitness (log ratio) of A17G A37U U82C C96A ?
[out] -2.2

[in] Suppose we examine the variant A41U G80A A97U ; what polymerase ribozyme fitness (log ratio) value has been reported?
[out] -1.76

[in] Quick one: polymerase ribozyme fitness (log ratio) of A40U U130A ?
[out] -3.96

[in] Requested field: polymerase ribozyme fitness (log ratio). Item: A22U C125U
[out] -0.442
